molecular target: hERG (KCNH2) (Homo sapiens, UniProt Q12809); experiment: Inhibition of hERG current at 1 uM by patch clamp electrophysiology assay; assay type: toxicity
Sequence (Q12809 whole entry): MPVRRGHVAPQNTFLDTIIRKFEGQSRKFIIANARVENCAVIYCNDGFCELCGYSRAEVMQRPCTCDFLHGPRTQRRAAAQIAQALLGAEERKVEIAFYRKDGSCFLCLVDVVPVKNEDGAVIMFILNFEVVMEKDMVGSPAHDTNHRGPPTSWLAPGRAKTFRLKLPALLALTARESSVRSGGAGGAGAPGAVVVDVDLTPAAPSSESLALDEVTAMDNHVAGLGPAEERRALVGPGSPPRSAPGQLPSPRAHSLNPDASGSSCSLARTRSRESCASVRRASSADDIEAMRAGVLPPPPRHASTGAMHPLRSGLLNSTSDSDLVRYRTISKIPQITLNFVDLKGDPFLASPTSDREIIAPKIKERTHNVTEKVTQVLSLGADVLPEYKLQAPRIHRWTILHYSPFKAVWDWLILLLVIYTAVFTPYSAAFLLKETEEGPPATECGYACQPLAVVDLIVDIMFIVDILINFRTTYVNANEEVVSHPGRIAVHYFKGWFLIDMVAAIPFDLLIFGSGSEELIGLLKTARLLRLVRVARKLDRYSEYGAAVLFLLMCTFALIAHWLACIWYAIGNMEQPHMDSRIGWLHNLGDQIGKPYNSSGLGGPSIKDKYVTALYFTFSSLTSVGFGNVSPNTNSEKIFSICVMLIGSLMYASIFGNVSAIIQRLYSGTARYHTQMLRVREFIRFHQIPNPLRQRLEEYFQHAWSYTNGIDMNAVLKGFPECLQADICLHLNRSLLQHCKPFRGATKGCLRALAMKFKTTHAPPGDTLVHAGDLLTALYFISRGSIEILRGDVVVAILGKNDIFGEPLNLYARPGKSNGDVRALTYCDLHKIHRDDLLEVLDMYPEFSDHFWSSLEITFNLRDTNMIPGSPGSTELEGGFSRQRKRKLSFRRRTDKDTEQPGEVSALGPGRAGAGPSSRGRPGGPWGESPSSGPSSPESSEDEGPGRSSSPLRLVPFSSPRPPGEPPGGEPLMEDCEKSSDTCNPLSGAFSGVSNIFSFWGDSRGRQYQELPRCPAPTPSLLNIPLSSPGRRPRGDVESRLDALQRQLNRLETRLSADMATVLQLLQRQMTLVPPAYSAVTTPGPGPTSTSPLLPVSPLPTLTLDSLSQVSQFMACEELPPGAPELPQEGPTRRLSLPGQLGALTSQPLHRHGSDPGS
Measured inhibition at 1 µM values are reported for all entries that follow.
Just the number please, in %, no unit attached.

Some compounds with known inhibition at 1 µM results, for comparison:
Given the compound Cc1cc(N2CCNCC2)c2c(c1)N(S(=O)(=O)c1ccccc1C#N)CCO2 , what is its reported inhibition at 1 µM?
14.2

// query: O=S(=O)(c1ccccc1F)N1CCOc2c(N3CCNCC3)cccc21
9.9

// query: O=S(=O)(c1ccccc1F)N1CCOc2c(N3CCNCC3)cc(Cl)cc21
45.2

***
Given the compound Cc1cc(N2CCNCC2)c2c(c1)N(S(=O)(=O)c1ccccc1)CCO2 , what is its reported inhibition at 1 µM?
23.2

// query: O=S(=O)(c1ccccc1Cl)N1CCOc2c(N3CCNCC3)cccc21
28.2

// query: COc1cc(N2CCNCC2)c2c(c1)N(S(=O)(=O)c1ccccc1)CCO2
34

// query: O=S(=O)(c1ccccc1F)N1CCOc2c(N3CCNCC3)cc(F)cc21
26

// query: Cc1cc(N2CCNCC2)c2c(c1)N(S(=O)(=O)c1ccccc1F)CCO2
26.5
